Tested on: weeds ABUTH, AMATA, AMBEL, CHEAL, ERICA
TEST: Postemergence herbicide evaluation, overall average % weed control across ABUTH, AMATA, AMBEL, CHEAL and ERICA
Assay type: in vivo
DETAILS: post-emergence, 504 h, read-out: Overall Ave % Weed Control
Quick rule for you: pest or weed control at 560 g/ha at 90% or higher means 1, lower means -1.

Tell me whether pest or weed control at 560 g/ha is at least 90% here: O=C(COc1ccc(Cl)cc1Cl)OCCOCCOCCOCCOC(=O)COc1ccc(Cl)cc1Cl 1

Tell me whether pest or weed control at 560 g/ha is at least 90% here: O=C(COc1ccc(Cl)cc1Cl)OCCCOC(=O)COc1ccc(Cl)cc1Cl -1

Tell me whether pest or weed control at 560 g/ha is at least 90% here: O=C(COc1ccc(Cl)cc1Cl)OCCCCCOC(=O)COc1ccc(Cl)cc1Cl 1

Tell me whether pest or weed control at 560 g/ha is at least 90% here: O=C(COc1ccc(Cl)cc1Cl)OCCCCCCOC(=O)COc1ccc(Cl)cc1Cl -1

Tell me whether pest or weed control at 560 g/ha is at least 90% here: O=C(COc1ccc(Cl)cc1Cl)OCCOCCOCCOC(=O)COc1ccc(Cl)cc1Cl -1

This collection of values is drawn from patent US20260042731A1.
